# test.description: yeast display, Sf9 membrane polyspecificity reagent, FACS + sequencing; frameworks hold sequencing errors
endpoint.name: polyreactivity (PSR sort gate)

These solved cases illustrate the format of a correct answer.
{"seq.text": "QVQLVESGGGLVQAGGSLRLSCAASGFIFLHYAMGWYRQAPGKERELVAAISSSGGRTYYADSVKGRFSISRDNAKNTVYLQMNSLKPEDTAVYYCAAEAYPWYVPYDYWGQGTQVTVSS", "polyreactivity (PSR sort gate)": "high polyreactivity"}
{"seq.text": "QVQLVESGGGLVQAGGSLRLSCAASGITLSIYAMGWYRQAPGKERELVAAIDWSDGSTYYADSVKGRFTISRDNAKNTVYLQMNSLKPEDTAVYYCAAEYHWSYWWPTDDYWGQGTQVTVSS", "polyreactivity (PSR sort gate)": "high polyreactivity"}
{"seq.text": "QVQLVESGGGLVQAGCSLRLSCDASGSTFNWNAMGRYRQAPGKERELVAVIRRNGATTNYADSVKGRFTISRDNAKITVYLQMNSLKPEDTAVYYCAVAKWQPRRRKYYYWGQGTQVTVSS", "polyreactivity (PSR sort gate)": "high polyreactivity"}
{"seq.text": "QVQLVESGGGLVQAGGSLRLSCAASGFTFRWYTMGWYRQAPGKERELVASIDWSGGSTYYADSVKGRFTITRDNAKNTVYLQMNSLKAEDTAVYYCNAGSDIFWSASTYGYWGQGTQVTVSS", "polyreactivity (PSR sort gate)": "high polyreactivity"}

Entry under test: QVQLVESGGGLVQAGGSLRLSCAASGRILYRYDMGWYRQAPGKERELVAAISRRGGSTTYADSVKGRFTISRDNAKNTVYLQMNSLKPEDTAVYYCATDYKYAAPTVIESDYWGQGTEVTVSS . Its polyreactivity (PSR sort gate) was high polyreactivity

---

# test.description: yeast display, Sf9 membrane polyspecificity reagent, FACS + sequencing; frameworks hold sequencing errors
endpoint.name: polyreactivity (PSR sort gate)

These solved cases illustrate the format of a correct answer.
{"seq.text": "QVQLVESGGGLVHAGGSRRLSCAASGNFFRYYVLGWYRQAPGTERECVAAITSSGGSKYYADSVKGRFTISRDNANNTVYLQMNSLKPEDTAVYYCAKDYWDPGWAEYDFWGQGTQVTVSS", "polyreactivity (PSR sort gate)": "low polyreactivity"}
{"seq.text": "QVHLVESGGGLVQAGGSLRLSCAASGSTKGNNAMGWYRQATGKERELVAAISTRGGSTYYADSVKGRFTISRDNAKNTVYLQMNSLKPEDTAVYYCAADFGQYHGAVRKMDYWGQGTQVTVSS", "polyreactivity (PSR sort gate)": "low polyreactivity"}
{"seq.text": "QVHLVESGGGLVQAGGSLRLSCAPSGRIFFPYAMGWYRQAPGKEREFVAAIRRSGGSTYYADSVKGRFTISRDNAKNTVYLQMNSLKPEDTAVYYCNAPLKRYGYYKYGYWGQGTQVTVSS", "polyreactivity (PSR sort gate)": "high polyreactivity"}
{"seq.text": "QVHLVESGGGLVQAGGSLRLSCASSGRIFEAYAMGWYRQAPGKERELVAAISGSGGSTYYADSVKGRFTISRDNAKNTVYLQMNSLKPEDTAVYYCAARYFVGKGLGYWGQGTQVTVSS", "polyreactivity (PSR sort gate)": "high polyreactivity"}

Now consider a different sequence.
Entry under test: QVQLVESGGGLVKAGGSLRLRCAAAGLILYPYAMGWYRQAPGKESELVAAITSDGSTYYADSVKGRFTISRVNAKNTVYLQMNSLKQEDTAVYYCAVVVAYFDDDYGLSWFYEYDYWGQGTQVTVSS . Its polyreactivity (PSR sort gate) was low polyreactivity

---

# test.description: yeast display, Sf9 membrane polyspecificity reagent, FACS + sequencing; frameworks hold sequencing errors
endpoint.name: polyreactivity (PSR sort gate)

{"seq.text": "QVQLVESGGGLVQAGGSLRLSCAASGITFRYYAMGWYRQAPGKERELVAAISIRGRTYYADSVKGRFTISRDNAKNTVYLQMNSLKPEDTAVYYCAAVKRVVAFDYWGQGTQVTVSS", "reported.measurement": "low polyreactivity"}
{"seq.text": "QVQLVESGGGLVQAGGSLRLSCAASGNTFPLNAMGWYRQAPGKERELVAAISSSGRTYYADSVKGRFTISRDNAKNTVYLQMNSLKPEDTAVFYCNAKWRERGVRMDYWGQGTQVTVSS", "reported.measurement": "high polyreactivity"}
{"seq.text": "QVQLVESGGGLVQAGGSLRLSCAASGSIFRYYAMGWYRQAPGKERELVASITRRGGSTYYADSVKGRFTISRDNAKNTVYLQMTSLKPEDTAVYYCAAHKTYVRDYYWGQGTQVTVSS", "reported.measurement": "high polyreactivity"}
{"seq.text": "QVQLVESGGGLVQAGGSLRLSCAASGFTFDNYVMGWYRQAPGKERELVAAISKSGTSTYYADSVKGRFTISRDNAKNTVYLQMNSLKPEDTAVSYCAARQYSQEPYDYWGQGTQVTVSS", "reported.measurement": "high polyreactivity"}
{"seq.text": "QVQLVESGGGLVQAGGSLRISCAASVSTFGRYAMGWYRQAPGKERELVAAISRGTTTNYADSVKGRFTISRDNAKNTVYLQMNSLKPEDTAVYYCAADQPSKRYYYWGQGTQVTVSS", "reported.measurement": "low polyreactivity"}
{"seq.text": "QVQLVVSGGGLVQAGGSLRLSCAASGYIFVYNAMGWYRQAPGKERELVSAITDGGGSTYADSVKGRFTISRDNAKNTVYLQMNSLKPEDTAVYYCAALYSDTTWYVLYYYWGQGTQVTVSS", "reported.measurement": "low polyreactivity"}
{"seq.text": "QVQLVESGGGLVQAGGSLRLSCAASGSIFEYNGMGWSRQAPGKERELVAAITTTGTTDYADSVKGRFTISRDNAKNTVYLQMNSLKPEDTAVYYCAADYTYYYKGEYDYWGQGTQVTVSS", "reported.measurement": "low polyreactivity"}
{"seq.text": "QVQLVESGGGLDQAGGSLRLSCAASGTTFRNNAMGWYRQAPGKERELVAVITGDGGSTYYADSVKGRFTISRDNAKNTVYLEMNSLKPEDTAVYYCNARSIRYSRFRQRFGYWGQGTQVTVSS", "reported.measurement": "low polyreactivity"}
{"seq.text": "QVQLVESGGGLVQAGGSLRLSCAASGRIFLPNAMGWYRQAPGKEREFVASISWSGGSTYYADSVKGRFTISRDNAKNTVYLQMNSLNPEDTAVYYCAAQSPAYYSKSYWGQGTQVTVSS", "reported.measurement": "low polyreactivity"}
{"seq.text": "QVQLVESGGGLVQAGGSLRLSCAASGRTFWSYAMGWYRQAPGKERELVAAINSGGSTYYADSVKGRFTISRDNAKNTVYLQMNSLKPEDTAVYYFAADTWYGFDWGQGTQVTVSS", "reported.measurement": "high polyreactivity"}

Now consider a different sequence.
Entry under test: QVQLVESGGGLVQAGGSLRLSCAASGSIFGDNAMGWYRQAPGKERELVATISSSDASTYYADSVKGRFTISRDNAKKTVYLQMNSLKPEDTAVYYCAAARSGGYDYWGQGTQVTVSS . Its polyreactivity (PSR sort gate) was low polyreactivity

---

# test.description: yeast display, Sf9 membrane polyspecificity reagent, FACS + sequencing; frameworks hold sequencing errors
endpoint.name: polyreactivity (PSR sort gate)

These solved cases illustrate the format of a correct answer.
{"seq.text": "QVQLVESGGGLVQAGGSLRLSCAASGRIFRRYAMGWYRQAPGKERELVASISSGGSTNYADSVKGRFTISRDNAKNTVYLQMNSLKPEDTAVYYCNVYYGYFRSRYGYWGQGTQVTVSS", "polyreactivity (PSR sort gate)": "high polyreactivity"}
{"seq.text": "QVQLVESGGGLVQAGGSLRLSCAASGRTFSYYAMGWYRQAPGKEREFVAAISSTGTSTYYADSVKGRFTISRDNAKNTFSLQMNRLKPEDTAVYYCNARVATYRLHSKFYYWGQGTQVTVSS", "polyreactivity (PSR sort gate)": "high polyreactivity"}
{"seq.text": "QVQLVESGGGLVQAGGSLRLSCAASGFIFADNPMGWYRQAPGKERELVAGITSGGITNYADSVKGRFTISRDNAKNTVYLQMNSLKPEDTAVYYCAVYYRRWFSRYDYWGQGTQVTVSS", "polyreactivity (PSR sort gate)": "low polyreactivity"}
{"seq.text": "QVQLVESGGGLVQAGVSLRLSCAASGRTSAYSAMGWYRQAPGKERQLVAGITRGGRTNYADSVKGRFTISRDNAKNTVYLQMHSLKPEDTAVYYCAAKYGYYWNSRTSGYWGQGTQVTVSS", "polyreactivity (PSR sort gate)": "high polyreactivity"}

Entry under test: QVQLVESGGGLVQAGGSLRLSCAASGSTSVKYAMGWYRQAPGKERELVAAIRKRGDSTYYADSVKGRFTISRDNAKNTVYLQMNSLKPEDTAVYYCAAQYLRGRGYWGQGTQVTVSS . Its polyreactivity (PSR sort gate) was low polyreactivity

---

# test.description: yeast display, Sf9 membrane polyspecificity reagent, FACS + sequencing; frameworks hold sequencing errors
endpoint.name: polyreactivity (PSR sort gate)

{"seq.text": "QVQLVESGGGFVQAGGSLRLSSAASGRTFYFYTMLWYRQAPGKERELVAAISWSGGSTYYADSVKGRFTISRDNAKNTVYLQMNSLKPEDTAVYYCAASSPWDQSNDQFYYWGQGTQVTVSS", "reported.measurement": "low polyreactivity"}
{"seq.text": "QVQLVESGGGLVQAGGSLRLSCAASGSTFYRYVMGWYRQAPGKERELVAAITWRGGTTYYADSVKGRFTISRDNAKNTVYLQMNRLNPEDTAVYYCNADRYLGVSEYKTYEYEYWGQGTQVTVSS", "reported.measurement": "low polyreactivity"}
{"seq.text": "QVQLVESGGGLVQAGGSLRLSCAASGSIFGGYTMGWYRQAPGKERKLVAAISRRGGNTYYADSVKGRFTISRDNAKNTVYLLMNSLKPEDTAVYYCAVRWPSARIPVKLDYWGQGTQVTVSS", "reported.measurement": "high polyreactivity"}
{"seq.text": "QVQLVESGGGLVQAGGSLRLSCGASGFTFPYYAMGWYIQAPGKERELVAAITSSGGSTYYADSVKGRFTISRDNAKNTVYLQMNSLNPEDTAVYYCAVDAYYYKWYDYWGQGTQVTVSS", "reported.measurement": "high polyreactivity"}

Entry under test: QVQLVESGGGLVQAGGSLRLSCAASGSIFNYYDMGWYRQAPGKERELVAAIDLTGGTTYYADSVKGRFTISRDNAKNTVYLQMNSLKPEDTAVYYCAAQYIRSSWWGYDYWGQGTQVSVSS . Its polyreactivity (PSR sort gate) was low polyreactivity
